biological target: Aβ1-40 (Homo sapiens, UniProt P05067); construct: 20 μM of solubilized Aβ40; assay: Mass spectroscopy (MS) binding assay; parameters: key: “+++” indicates strong binding; “++” indicates moderate binding; “+” indicates weak binding; “−” indicates no detectable binding; settings: 200 μM test compound, 20 μM solubilized Aβ40, 20% ethanol, pH 7.4
Sequence (P05067 672-711 limits assumed): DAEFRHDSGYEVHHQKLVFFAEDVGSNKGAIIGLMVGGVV
reported.metric: MS Binding Aβ1-40

molecule="O=S(=O)(O)CCCNC1C2CC3CC(C2)CC1C3 (centres unmarked)" result=+++
molecule=C[n+]1cccc(C(=O)NCCCS(=O)(=O)[O-])c1 result=−
molecule=COc1cc(CNCCCS(=O)(=O)O)cc(OC)c1 result=+++
molecule=O=S(=O)(O)CCCNCc1ccc(O)c(O)c1 result=+
molecule="O=S(=O)(O)CCCNC1CCCc2ccccc21 (centres unmarked)" result=+++
molecule="O=S(=O)([O-])CCCC[n+]1ccc(C2CC=CCC2)cc1 (centres unmarked)" result=+
molecule=COc1ccc(CNCCCS(=O)(=O)O)c(OC)c1 result=+++
molecule="CCNCCCS(=O)(=O)O [BV, 3-(ethylamino)-1-propanesulfonic acid]" result=+++
molecule=O=C(NCCCS(=O)(=O)[O-])OCc1ccccc1.[Na+] result=+
molecule=O=C(NCCCS(=O)(=O)O)NC(c1ccccc1)c1ccccc1 result=+

Requested field: MS Binding Aβ1-40. Item: O=S(=O)(O)CCCN1CC=C(CCCc2ccccc2)CC1 +

# get_value(readout='MS Binding Aβ1-40', item= COc1cc(CNCCCS(=O)(=O)O)cc(OC)c1OC ) ++

Suppose we examine the molecule NCCNS(=O)(=O)[O-].[Na+] ; what MS Binding Aβ1-40 value has been reported? +

Fill in the blank: the reported MS Binding Aβ1-40 of COc1cccc(CNCCCS(=O)(=O)O)c1OC is ____. ++

Returns the measured MS Binding Aβ1-40 for the input molecule. Input: COc1ccc(CNCCCS(=O)(=O)O)cc1OC +++

Return reported MS Binding Aβ1-40; argument: NCCCCS(=O)(=O)O ++

May I ask what MS Binding Aβ1-40 has been recorded for O=S(=O)([O-])CCCNC(=S)NCc1ccccc1.[Na+] ? +

// lookup MS Binding Aβ1-40 for O=S(=O)(O)CCCNCc1ccc2c(c1)OCO2 ++
